From: paper PMC3794980

Assayed system: DRB4*0101 (Homo sapiens, UniProt P01903+P13762, G164S)
Experiment description: biochemical
Assay endpoint: pIC50
One number for each entry, as −log10 of the molar value.

Reference set (2 entries):
{"columns": ["Smiles", "pIC50"],
 "data": [
  ["CC(C)C[C@H](NC(=O)[C@H](CCCCN)NC(=O)CNC(=O)[C@H](CO)NC(=O)[C@@H](NC(=O)[C@@H](NC(=O)[C@@H](NC(=O)[C@@H](NC(=O)[C@H](CCCNC(=N)N)NC(=O)[C@H](CC(C)C)NC(=O)[C@H](CO)NC(=O)[C@@H]1CCCN1C(=O)CNC(=O)[C@H](CCCNC(=N)N)NC(=O)[C@@H](N)[C@@H](C)O)[C@@H](C)O)[C@@H](C)O)[C@@H](C)O)C(C)C)C(=O)O", 6.10],
  ["CC[C@H](C)[C@H](NC(=O)[C@H](CCCNC(=N)N)NC(=O)[C@H](CCCCN)NC(=O)[C@@H](NC(=O)[C@H](CCCNC(=N)N)NC(=O)[C@H](CCC(=O)O)NC(=O)CNC(=O)[C@@H](NC(=O)[C@@H](NC(=O)[C@H](CC(=O)O)NC(=O)[C@H](CCSC)NC(=O)[C@H](CC(N)=O)NC(=O)[C@@H]1CCCN1C(=O)[C@@H](NC(=O)[C@H](CCC(=O)O)NC(=O)[C@@H]1CCCN1)[C@@H](C)O)C(C)C)[C@@H](C)CC)[C@@H](C)CC)C(=O)N[C@@H](CCCCN)C(=O)O", 6.06]
]}

# context switch: different compound, same pIC50
In: I have this compound here, `CC[C@H](C)[C@H](NC(=O)[C@H](Cc1c[nH]c2ccccc12)NC(=O)[C@H](CCC(=O)O)NC(=O)[C@H](CC(N)=O)NC(=O)CNC(=O)[C@H](CO)NC(=O)[C@H](CC(N)=O)NC(=O)[C@@H](N)Cc1c[nH]c2ccccc12)C(=O)N[C@H](C(=O)N[C@@H](CC(=O)O)C(=O)N[C@@H](Cc1ccccc1)C(=O)N[C@@H](C)C(=O)NCC(=O)N[C@@H](CCCCN)C(=O)N[C@H](C(=O)O)[C@@H](C)O)[C@@H](C)O` , and I need its recorded pIC50.
Out: 5.98

----------
Assayed system: DRB1*0401 (Homo sapiens, UniProt P01903+P01911, A100K/A169T/F76Y/I96L/K127E/L162R/M171V/N62H/P40V/Q125Y/R42H/S133A/S149N/S66Y/V115G/V209L/W38E)
Experiment description: biochemical
Format: binding
Assay endpoint: pIC50
One number for each entry, as −log10 of the molar value.

Here's what some known entries look like.
{"columns": ["Compound", "Measured result"],
 "data": [
  ["CC[C@H](C)[C@H](NC(=O)[C@H](CCCCN)NC(=O)[C@H](C)NC(=O)[C@H](CCCCN)NC(=O)CNC(=O)[C@H](Cc1c[nH]c2ccccc12)NC(=O)[C@@H](N)[C@@H](C)O)C(=O)N[C@H](C(=O)N[C@H](C(=O)N[C@@H](C)C(=O)N[C@@H](CCC(=O)O)C(=O)N[C@H](C(=O)N[C@@H](CCC(N)=O)C(=O)N[C@@H](CC(N)=O)C(=O)N[C@@H](CO)C(=O)O)[C@@H](C)O)[C@@H](C)O)C(C)C [NS1 117-131]", 7.55],
  ["CC[C@H](C)[C@H](NC(=O)[C@H](C)NC(=O)[C@H](CC(N)=O)NC(=O)[C@H](C)NC(=O)[C@H](CC(C)C)NC(=O)[C@H](CCC(N)=O)NC(=O)[C@H](CCCNC(=N)N)NC(=O)[C@H](Cc1c[nH]cn1)NC(=O)[C@H](CCC(=O)O)NC(=O)[C@@H]1CCCN1)C(=O)N[C@@H](Cc1ccccc1)C(=O)N[C@@H](CCCCN)C(=O)N[C@@H](CC(C)C)C(=O)N[C@H](C(=O)N[C@@H](Cc1ccc(O)cc1)C(=O)N[C@@H](CCC(N)=O)C(=O)N[C@@H](CC(N)=O)C(=O)O)[C@@H](C)O [NS5 558-574]", 5.55],
  ["CC(C)C[C@H](NC(=O)[C@H](C)NC(=O)[C@H](CCC(=O)O)NC(=O)[C@H](Cc1ccccc1)NC(=O)[C@H](CCC(=O)O)NC(=O)[C@H](CC(C)C)NC(=O)[C@H](Cc1ccc(O)cc1)NC(=O)[C@H](CCCNC(=N)N)NC(=O)[C@H](C)NC(=O)CNC(=O)[C@H](CC(C)C)NC(=O)[C@@H](N)Cc1c[nH]c2ccccc12)C(=O)NCC(=O)N[C@@H](Cc1ccccc1)C(=O)N[C@@H](CC(C)C)C(=O)N[C@@H](CC(N)=O)C(=O)N[C@@H](CCC(=O)O)C(=O)O [NS5 477-493]", 7.17]
]}

In: Can you look up the measured pIC50 of CSCC[C@H](NC(=O)[C@@H](NC(=O)[C@H](Cc1ccccc1)NC(=O)[C@H](CCCNC(=N)N)NC(=O)[C@H](CC(N)=O)NC(=O)[C@H](CC(C)C)NC(=O)[C@H](CC(C)C)NC(=O)[C@H](CC(C)C)NC(=O)[C@H](CCCNC(=N)N)NC(=O)[C@H](CO)NC(=O)[C@@H](NC(=O)[C@@H](N)CCSC)C(C)C)[C@@H](C)O)C(=O)N[C@H](C(=O)N[C@@H](Cc1c[nH]cn1)C(=O)N[C@@H](CCCNC(=N)N)C(=O)N[C@@H](CCCNC(=N)N)C(=O)O)[C@@H](C)O [NS5 233-248] for me?
Out: 7.24

----------
For each entry below, report its IC50 value.
Assayed system: DRB5*0101 (Homo sapiens, UniProt P01903+Q30154)
Experiment description: biochemical
Answers are plain numbers, in µM.

# annotated cases, reported IC50 shown
{"columns": ["Compound", "Readout unit", "IC50"],
 "data": [
  ["CC[C@H](C)[C@H](NC(=O)[C@@H]1CCCN1C(=O)[C@H](CC(C)C)NC(=O)CNC(=O)[C@@H](N)CCCCN)C(=O)N[C@@H](CCCNC(=N)N)C(=O)N[C@@H](Cc1ccc(O)cc1)C(=O)N[C@@H](CCC(N)=O)C(=O)N[C@H](C(=O)N[C@H](C(=O)N[C@@H](C)C(=O)N[C@H](C(=O)N[C@@H](CCCCN)C(=O)N[C@@H](CO)C(=O)N[C@@H](CCC(=O)O)C(=O)O)[C@@H](C)O)[C@@H](C)O)[C@@H](C)O [NS3 237-251]", "µM", 0.013],
  ["CC[C@H](C)[C@H](NC(=O)[C@H](CC(C)C)NC(=O)[C@H](CCC(=O)O)NC(=O)[C@H](CC(=O)O)NC(=O)[C@H](CCC(N)=O)NC(=O)[C@@H]1CCCN1C(=O)[C@H](CCCNC(=N)N)NC(=O)[C@H](CS)NC(=O)[C@@H]1CCCN1C(=O)[C@@H](NC(=O)[C@@H](NC(=O)[C@H](CC(C)C)NC(=O)[C@H](CCCCN)NC(=O)[C@H](CCCNC(=N)N)NC(=O)CNC(=O)[C@H](CC(=O)O)NC(=O)[C@@H](N)CCCCN)C(C)C)C(C)C)C(=O)O [NS5 719-735]", "µM", 3.44],
  ["CC[C@H](C)[C@H](NC(=O)[C@@H](NC(=O)[C@H](CCCCN)NC(=O)[C@H](CCCCN)NC(=O)CNC(=O)[C@H](CC(N)=O)NC(=O)[C@H](CCCCN)NC(=O)[C@H](CCCNC(=N)N)NC(=O)[C@H](CC(C)C)NC(=O)[C@H](CS)NC(=O)[C@H](CC(N)=O)NC(=O)[C@H](C)N)C(C)C)C(=O)N[C@@H](CCC(N)=O)C(=O)N[C@@H](CC(C)C)C(=O)N[C@@H](CO)C(=O)O [NS3 373-387]", "µM", 3.54],
  ["CC[C@H](C)[C@H](NC(=O)[C@@H]1CCCN1C(=O)CNC(=O)[C@H](C)NC(=O)[C@H](CC(C)C)NC(=O)[C@H](CO)NC(=O)[C@H](CCCCN)NC(=O)[C@@H]1CCCN1C(=O)[C@@H](NC(=O)[C@@H](NC(=O)[C@H](CCSC)NC(=O)[C@H](CC(=O)O)NC(=O)[C@H](CO)NC(=O)[C@H](CCC(=O)O)NC(=O)[C@@H](N)CC(C)C)[C@@H](C)CC)[C@@H](C)CC)C(=O)O [NS1 237-251]", "µM", 14.8]
]}

Now for a further compound.
In: Reported IC50 for CC[C@H](C)[C@H](NC(=O)[C@H](CCC(N)=O)NC(=O)[C@@H](N)CCCCN)C(=O)N[C@@H](C)C(=O)N[C@@H](CC(N)=O)C(=O)N[C@@H](CCC(=O)O)C(=O)N[C@@H](CC(C)C)C(=O)N[C@@H](CC(N)=O)C(=O)N[C@@H](Cc1ccc(O)cc1)C(=O)N[C@H](C(=O)N[C@@H](CC(C)C)C(=O)N[C@@H](Cc1c[nH]c2ccccc12)C(=O)N[C@@H](CCC(=O)O)C(=O)N[C@@H](CC(N)=O)C(=O)N[C@@H](CC(N)=O)C(=O)O)[C@@H](C)CC [NS1 69-83] : what is it?
Out: 2.38
